study-system: T1, cyno TIGIT-Fc (cynomolgus monkey)
T1 construct: not shown: Fc part
T1 sequence (chain, as listed by the source limits assumed): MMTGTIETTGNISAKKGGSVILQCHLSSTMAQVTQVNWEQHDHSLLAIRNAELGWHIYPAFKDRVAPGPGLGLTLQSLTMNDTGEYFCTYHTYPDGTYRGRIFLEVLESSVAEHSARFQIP
method: BLI (ForteBio), IgG on sensor, avid

binder	endpoint-unit	Kd
Clone 25 (antibody, V domains shown, Fully human IgG produced in yeast; also called anti-TIGIT clone 25) VH: QVQLVQSGAEVKKPGASVKVSCKASGYTFTSYAISWVRQAPGQGLEWMGWISAYNGNTNYAQKLQGRVTMTTDTSTSTAYMELRSLRSDDTAVYYCARDLSSFWSGDVLGAFDIWGQGTMVTVSS VL: DIQMTQSPSSLSASVGDRVTITCRASQSISSYLNWYQQKPGKAPKLLIYAASSLQSGVPSRFSGSGSGTDFTLTISSLQPEDFATYYCQQSVPPRTFGGGTKVEIK	nM	1.5
Clone 25C (antibody, V domains shown) VH: QVQLVQSGAEVKKPGASVKVSCKASGYTFTSYPIGWVRQAPGQGLEWMGWISSYNGNTNYAQKLQGRVTMTTDTSTSTAYMELRSLRSDDTAVYYCARGASSFWSGDVLGAFDIWGQGTMVTVSS VL: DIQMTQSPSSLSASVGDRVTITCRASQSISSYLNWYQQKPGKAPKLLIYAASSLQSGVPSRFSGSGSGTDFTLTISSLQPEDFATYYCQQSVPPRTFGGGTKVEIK	nM	1.24
Clone 16D (antibody, V domains shown) VH: QVQLVQSGAEVKKPGSSVKVSCKASGGTFSDYPISWVRQAPGQGLEWMGGIIPIVGGANYAQKFQGRVTITADESTSTAYMELSSLRSEDTAVYYCTRQSTWHKLFGTDVWGQGTTVTVSS VL: DIQMTQSPSSVSASVGDRVTITCRASQGISSWLAWYQQKPGKAPKLLIYAASSLQSGVPSRFSGSGSGTDFTLTISSLQPEDFATYYCQQGDSLPPTFGGGTKVEIK	nM	1.15
